target: Phosphatidylinositol 4,5-bisphosphate 3-kinase catalytic subunit alpha isoform (Homo sapiens, UniProt P42336); assay: Inhibition of PI3Kalpha (unknown origin) using PIP2 as substrate in presence of ATP measured after 1 hr by ADP-Glo assay
Sequence (P42336 whole entry, canonical isoform): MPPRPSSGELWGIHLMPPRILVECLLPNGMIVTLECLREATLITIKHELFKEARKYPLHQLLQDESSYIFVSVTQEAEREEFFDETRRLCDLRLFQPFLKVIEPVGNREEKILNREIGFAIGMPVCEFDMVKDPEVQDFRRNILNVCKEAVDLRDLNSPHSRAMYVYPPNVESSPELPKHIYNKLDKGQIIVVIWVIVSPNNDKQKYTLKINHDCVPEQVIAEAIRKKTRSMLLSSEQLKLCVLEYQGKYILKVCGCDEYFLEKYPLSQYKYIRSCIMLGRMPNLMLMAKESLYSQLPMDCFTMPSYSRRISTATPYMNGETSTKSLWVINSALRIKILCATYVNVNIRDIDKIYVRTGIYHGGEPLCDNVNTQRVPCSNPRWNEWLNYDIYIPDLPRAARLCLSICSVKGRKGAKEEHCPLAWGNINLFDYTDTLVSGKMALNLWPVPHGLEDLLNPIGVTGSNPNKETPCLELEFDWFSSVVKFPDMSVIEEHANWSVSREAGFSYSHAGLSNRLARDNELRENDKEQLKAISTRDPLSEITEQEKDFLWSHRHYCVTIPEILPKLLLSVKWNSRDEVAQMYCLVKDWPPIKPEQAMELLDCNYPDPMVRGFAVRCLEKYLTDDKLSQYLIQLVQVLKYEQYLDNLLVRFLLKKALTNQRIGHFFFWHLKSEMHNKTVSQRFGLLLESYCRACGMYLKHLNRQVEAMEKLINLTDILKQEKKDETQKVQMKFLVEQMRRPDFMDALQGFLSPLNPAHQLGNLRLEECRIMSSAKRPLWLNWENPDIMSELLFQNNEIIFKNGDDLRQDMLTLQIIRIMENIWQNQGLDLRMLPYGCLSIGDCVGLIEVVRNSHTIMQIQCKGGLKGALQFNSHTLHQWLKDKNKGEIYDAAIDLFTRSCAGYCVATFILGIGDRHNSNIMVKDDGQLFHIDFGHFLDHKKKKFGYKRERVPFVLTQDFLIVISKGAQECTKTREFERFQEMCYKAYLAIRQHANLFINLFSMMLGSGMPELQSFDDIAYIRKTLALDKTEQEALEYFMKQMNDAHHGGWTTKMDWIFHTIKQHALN
pIC50: −log10 of the molar value.
Entry flag: yes if pIC50 reaches 6; no if it does not.

Problem: Decide: pIC50 of CCN1CCN(c2nc(-c3ccc4oc(N)nc4c3)nc(N3CCOCC3)n2)CC1 >= 6?
Solution: yes

Further cases:
Problem: Decide: pIC50 of CN(C)c1nc2ccc(-c3nc(Nc4ccc(C(F)(F)F)cc4)nc(N4CCOCC4)n3)cc2s1 >= 6?
Solution: no

Problem: Decide: pIC50 of CC(C)(C)OC(=O)N1CCN(c2nc(-c3ccc4nc(N)sc4c3)nc(N3CCOCC3)n2)CC1 >= 6?
Solution: yes

Problem: Decide: pIC50 of CC(C)(C)OC(=O)N1CCN(c2nc(-c3ccc4oc(N)nc4c3)nc(N3CCOCC3)n2)CC1 >= 6?
Solution: yes

Problem: Decide: pIC50 of CC(=O)N1CCN(c2nc(-c3ccc4nc(NCc5ccc(C(=O)O)cc5)oc4c3)nc(N3CCN(C(C)=O)CC3)n2)CC1 >= 6?
Solution: no

Problem: Decide: pIC50 of COC(=O)c1ccc(CNc2nc3cc(-c4nc(N5CCOCC5)nc(N5CCOCC5)n4)ccc3o2)cc1 >= 6?
Solution: yes

Problem: Decide: pIC50 of COC(=O)c1ccc(CNc2nc3ccc(-c4nc(N5CCN(C(C)=O)CC5)nc(N5CCN(C(C)=O)CC5)n4)cc3o2)cc1 >= 6?
Solution: no

Problem: Decide: pIC50 of CC(C)c1ccc(CNc2nc3cc(-c4nc(N5CCOCC5)nc(N5CCOCC5)n4)ccc3o2)cc1 >= 6?
Solution: yes

Problem: Decide: pIC50 of NC(=O)c1ccc(CNc2nc3cc(-c4nc(N5CCOCC5)nc(N5CCOCC5)n4)ccc3o2)cc1 >= 6?
Solution: yes

Problem: Decide: pIC50 of O=[N+]([O-])c1ccc(CNc2nc3cc(-c4nc(N5CCOCC5)nc(N5CCOCC5)n4)ccc3o2)cc1 >= 6?
Solution: yes

Problem: Decide: pIC50 of CC(=O)N1CCN(c2nc(-c3ccc4nc(N)sc4c3)nc(N3CCOCC3)n2)CC1 >= 6?
Solution: yes

Problem: Decide: pIC50 of c1cc2oc(NC3CCCC3)nc2cc1-c1nc(N2CCOCC2)nc(N2CCOCC2)n1 >= 6?
Solution: no

Problem: Decide: pIC50 of N#Cc1ccc(CNc2nc3cc(-c4nc(N5CCOCC5)nc(N5CCOCC5)n4)ccc3o2)cc1 >= 6?
Solution: yes

Problem: Decide: pIC50 of Nc1nc2ccc(-c3nc(Nc4ccc5c(c4)OCO5)nc(Nc4ccc5c(c4)OCO5)n3)cc2o1 >= 6?
Solution: no

Problem: Decide: pIC50 of CC(=O)Nc1nc2ccc(-c3nc(N4CCOCC4)nc(N4CCOCC4)n3)cc2s1 >= 6?
Solution: no

Problem: Decide: pIC50 of CS(=O)(=O)N1CCN(c2nc(-c3ccc4oc(N)nc4c3)nc(N3CCOCC3)n2)CC1 >= 6?
Solution: yes

Problem: Decide: pIC50 of O=C(O)c1ccc(CNc2nc3ccc(-c4nc(N5CCOCC5)nc(N5CCOCC5)n4)cc3o2)cc1 >= 6?
Solution: yes

Problem: Decide: pIC50 of Nc1nc2cc(-c3nc(N4CCNCC4)nc(N4CCOCC4)n3)ccc2o1 >= 6?
Solution: yes

Problem: Decide: pIC50 of FC(F)(F)c1ccc(CNc2nc3cc(-c4nc(N5CCOCC5)nc(N5CCOCC5)n4)ccc3o2)cc1 >= 6?
Solution: yes

Problem: Decide: pIC50 of CS(=O)(=O)N1CCN(c2nc(-c3ccc4nc(N)oc4c3)nc(N3CCN(S(C)(=O)=O)CC3)n2)CC1 >= 6?
Solution: no
